Values were extracted from paper PMC6969910.

# assayed target: H. pylori HsrA response regulator (Helicobacter pylori)
# Sequence (O25684 entry or part of it): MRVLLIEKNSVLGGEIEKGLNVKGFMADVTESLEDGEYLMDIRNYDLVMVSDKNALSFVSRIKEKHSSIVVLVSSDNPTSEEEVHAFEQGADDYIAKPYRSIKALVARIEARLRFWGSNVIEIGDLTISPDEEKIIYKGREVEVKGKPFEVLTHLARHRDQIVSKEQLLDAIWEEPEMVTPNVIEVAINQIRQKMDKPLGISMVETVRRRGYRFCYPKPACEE
# assay protocol: biochemical
# Assay type: binding
# settings: ITC, 25 °C, pH 8; relative error 40%; read-out: Kd
measured property: pKd
A value of pKd is the negative decimal logarithm of a concentration given in moles per litre.

Here is how some compounds turned out for pKd.
[[record]]
compound = "COC(=O)C1=C(C)NC(C)=C(C(=O)OC(C)(C)CN(C)CCC(c2ccccc2)c2ccccc2)C1c1cccc([N+](=O)[O-])c1 (stereo not drawn)"
measured_property = "pKd"
numeric_value = 4.70

[[record]]
compound = "COC(=O)C1=C(C)NC(C)=C(C(=O)OCCN(C)Cc2ccccc2)C1c1cccc([N+](=O)[O-])c1 (stereo not drawn)"
measured_property = "pKd"
numeric_value = 5.52


Please look up its pKd: COCCOC(=O)C1=C(C)NC(C)=C(C(=O)OC(C)C)C1c1cccc([N+](=O)[O-])c1 (stereo not drawn)
5.39
